# TEST_NAME: Solubility in different aqueous media (24 hour at room temperature)
# Assay type: physicochemical
# MEASUREMENT_CONDITIONS: water, thermodynamic from solid
PARAMETER: solubility at 24 h

-- ask Name the reported solubility at 24 h value associated with the compound CCC(CC)c1cc(C)nc2c(-c3sc(N4CCOCC4)nc3Cl)c(C)nn12 [Compound 1]
-- reply < 2 µg/mL

###

# TEST_NAME: Study 2 Part A: multiple-dose (14 days) pharmacokinetics in healthy adult volunteers
# Assay type: in vivo, human
# MEASUREMENT_CONDITIONS: human, plasma, oral; 50 mg daily, Day 14; geometric mean; read-out: Vz/F
PARAMETER: Vd/F at 14 days
Report the figure along with its unit, number first.

-- ask Name the reported Vd/F at 14 days value associated with the molecule CCC(CC)c1cc(C)nc2c(-c3sc(N4CCOCC4)nc3Cl)c(C)nn12 [Compound 1]
-- reply 33500 L
